Cited source for all entries: ChEMBL document CHEMBL1133258

TGT: Human immunodeficiency virus type 1 reverse transcriptase (Human immunodeficiency virus 1) (UniProt Q72547)
PROPERTY NAME: IC90 (nM)
Answers are plain numbers, in nM.

Worked cases, answers included:
>>> observed_measurement("CCOC(=O)N1c2ccccc2NC(=O)C1(C#CC1CC1)C(F)(F)F (stereo in doubt)")
4.8
>>> observed_measurement("CC(C)OC(=O)N1c2cc(F)ccc2NC(=O)C1(C#CC1CC1)C(F)(F)F (configuration not stated)")
9
>>> observed_measurement("C#CCN1c2ccccc2NC(=O)C1(C#CC1CC1)C(F)(F)F (configuration not stated)")
53
>>> observed_measurement("CCOC(=O)N1c2cc(Cl)ccc2NC(=O)C1(C#CC1CC1)C(F)(F)F (configuration not stated)")
11

Value sought for every listed molecule: IC90.
1. CC(C)OC(=O)N1c2cc(Cl)ccc2NC(=O)C1(C#CC1CC1)C(F)(F)F (configuration not stated)
2. CC(C)CN1c2cc(Cl)ccc2NC(=O)C1(C#CC1CC1)C(F)(F)F (configuration not stated)
3. C=CCOC(=O)N1c2ccccc2NC(=O)C1(C#CC1CC1)C(F)(F)F (configuration not stated)
4. C=CCN1c2cc(F)ccc2NC(=O)C1(C#CC1CC1)C(F)(F)F (configuration not stated)
5. O=C1Nc2ccccc2N(CC2CC2)C1(C#CC1CC1)C(F)(F)F (stereo in doubt; 6z)

Result:
1. 19
2. 52
3. 30
4. 21
5. 11

Value sought for every listed molecule: IC90.
1. C=CCN1c2cc(OC)ccc2NC(=O)C1(C#CC1CC1)C(F)(F)F (configuration not stated)
2. C=C(C)OC(=O)N1c2ccccc2NC(=O)C1(C#CC1CC1)C(F)(F)F (configuration not stated)

Result:
[29, 11]

---

The reader will find pIC50 measurements below, all made with Human immunodeficiency virus type 1 reverse transcriptase (Human immunodeficiency virus 1).
One number for each entry, as −log10 of the molar value.

>>> observed_measurement("C=C(C)OC(=O)N1c2ccccc2NC(=O)C1(C#CC1CC1)C(F)(F)F (stereo not given)")
6.77

Value sought for every listed compound: pIC50.
1. O=C1Nc2ccccc2N(CC2CC2)C1(C#CC1CC1)C(F)(F)F (stereo in doubt; 6a)
2. CC(C)OC(=O)N1c2cc(F)ccc2NC(=O)C1(C#CC1CC1)C(F)(F)F (stereo not given)
3. CCOC(=O)N1c2ccccc2NC(=O)C1(C#CC1CC1)C(F)(F)F (stereo in doubt)

Result:
1. 6.60
2. 6.89
3. 7.35

---

TGT: Human immunodeficiency virus type 1 reverse transcriptase (Human immunodeficiency virus 1, UniProt Q72547)
PROPERTY NAME: pIC50
Give bare numbers, as −log10 of the molar value.

Worked cases, answers included:
>>> observed_measurement("CC(C)COC(=O)N1c2ccccc2NC(=O)C1(C#CC1CC1)C(F)(F)F (configuration not stated)")
5.94
>>> observed_measurement("O=C1Nc2ccccc2N(CCC2CC2)C1(C#CC1CC1)C(F)(F)F (configuration not stated)")
6.47
>>> observed_measurement("CCOC(=O)N1c2cc(Cl)ccc2NC(=O)C1(C#CC1CC1)C(F)(F)F (configuration not stated)")
6.90

Value sought for every listed compound: pIC50.
1. C=CCN1c2cc(OC)ccc2NC(=O)C1(C#CC1CC1)C(F)(F)F (configuration not stated)
2. C=C(C)OC(=O)N1c2cc(F)ccc2NC(=O)C1(C#CC1CC1)C(F)(F)F (configuration not stated)
3. CCCCOC(=O)N1c2ccccc2NC(=O)C1(C#CC1CC1)C(F)(F)F (configuration not stated)

Result:
[6.91, 6.74, 6.17]

---

TGT: UniProtKB Q72547
Consider the following compounds; for each one, report its log10 of IC50.
Use the decimal logarithm of IC50 (nM).

Value sought for every listed compound: log10 of IC50.
1. CC(C)OC(=O)N1c2cc(Cl)ccc2NC(=O)C1(C#CC1CC1)C(F)(F)F (stereo unspecified)
2. COc1ccc2c(c1)N(CC1CC1)C(C#CC1CC1)(C(F)(F)F)C(=O)N2 (stereo unspecified)
3. CC(C)CN1c2cc(Cl)ccc2NC(=O)C1(C#CC1CC1)C(F)(F)F (stereo unspecified)
4. C=CCN1c2cc(Cl)ccc2NC(=O)C1(C#CC1CC1)C(F)(F)F (stereo unspecified)
5. O=C1Nc2ccc(Cl)cc2N(CC2CC2)C1(C#CC1CC1)C(F)(F)F (stereo unspecified)
6. C=C(C)OC(=O)N1c2cc(Cl)ccc2NC(=O)C1(C#CC1CC1)C(F)(F)F (stereo unspecified)
7. CCOC(=O)N1c2ccccc2NC(=O)C1(C#CC1CC1)C(F)(F)F (stereo in doubt; 6m)

Result:
1. 2.20
2. 2.04
3. 2.61
4. 2.81
5. 2.52
6. 2.50
7. 2.07

---

TGT: Human immunodeficiency virus type 1 reverse transcriptase (Human immunodeficiency virus 1)
Checkbox rule: IC90 lower than 0.02 µM = 1; IC90 not lower than 0.02 µM = 0.

Completed entries (count: 5):
>>> assigned_label("C=C(C)OC(=O)N1c2cc(Cl)ccc2NC(=O)C1(C#CC1CC1)C(F)(F)F (stereo not given)")
1
>>> assigned_label("O=C1Nc2ccc(F)cc2N(CC2CC2)C1(C#CC1CC1)C(F)(F)F (stereo not given)")
0
>>> assigned_label("O=C1Nc2ccccc2N(CC2CC2)C1(C#CC1CC1)C(F)(F)F (stereo in doubt; 6a)")
1
>>> assigned_label("CC(C)COC(=O)N1c2ccccc2NC(=O)C1(C#CC1CC1)C(F)(F)F (stereo not given)")
0
>>> assigned_label("O=C1Nc2ccccc2N(CCC2CC2)C1(C#CC1CC1)C(F)(F)F (stereo not given)")
0

Request: Please determine if COc1ccc2c(c1)N(CC1CC1)C(C#CC1CC1)(C(F)(F)F)C(=O)N2 (stereo not given) is below 0.02 µM in terms of IC90.
Result: 1

Request: Please determine if C=CCN1c2ccccc2NC(=O)C1(C#CC1CC1)C(F)(F)F (stereo not given) is below 0.02 µM in terms of IC90.
Result: 0

Request: Please determine if CCOC(=O)N1c2cc(F)ccc2NC(=O)C1(C#CC1CC1)C(F)(F)F (stereo not given) is below 0.02 µM in terms of IC90.
Result: 1

Request: Please determine if O=C1Nc2ccccc2N(Cc2ccccc2)C1(C#CC1CC1)C(F)(F)F (stereo not given) is below 0.02 µM in terms of IC90.
Result: 0

Request: Please determine if CC(C)S(=O)(=O)N1c2ccccc2NC(=O)C1(C#CC1CC1)C(F)(F)F (stereo not given) is below 0.02 µM in terms of IC90.
Result: 0

Request: Please determine if CCCS(=O)(=O)N1c2ccccc2NC(=O)C1(C#CC1CC1)C(F)(F)F (stereo not given) is below 0.02 µM in terms of IC90.
Result: 0

Request: Please determine if CCOC(=O)N1c2ccccc2NC(=O)C1(C#CC1CC1)C(F)(F)F (stereo in doubt; 6m) is below 0.02 µM in terms of IC90.
Result: 1

Request: Please determine if C=CCN1c2cc(Cl)ccc2NC(=O)C1(C#CC1CC1)C(F)(F)F (stereo not given) is below 0.02 µM in terms of IC90.
Result: 0

Request: Please determine if CC(C)C(I)N1c2ccccc2NC(=O)C1(C#CC1CC1)C(F)(F)F (stereo not given) is below 0.02 µM in terms of IC90.
Result: 1

Request: Please determine if COC(=O)N1c2ccccc2NC(=O)C1(C#CC1CC1)C(F)(F)F (stereo not given) is below 0.02 µM in terms of IC90.
Result: 0

---

TGT: UniProtKB Q72547
Consider the following compounds; for each one, report its IC50.
One number for each entry, in nM.

Worked cases, answers included:
>>> observed_measurement("C=CCN1c2ccccc2NC(=O)C1(C#CC1CC1)C(F)(F)F (centres undefined)")
601
>>> observed_measurement("O=C1Nc2ccccc2N(Cc2ccccc2)C1(C#CC1CC1)C(F)(F)F (centres undefined)")
1820
>>> observed_measurement("COC(=O)N1c2ccccc2NC(=O)C1(C#CC1CC1)C(F)(F)F (centres undefined)")
504
>>> observed_measurement("C=CCOC(=O)N1c2ccccc2NC(=O)C1(C#CC1CC1)C(F)(F)F (centres undefined)")
147
>>> observed_measurement("CC(C)OC(=O)N1c2ccccc2NC(=O)C1(C#CC1CC1)C(F)(F)F (centres undefined)")
108

Value sought for every listed compound: IC50.
1. O=C1Nc2ccc(F)cc2N(CC2CC2)C1(C#CC1CC1)C(F)(F)F (centres undefined)
2. C=CCN1c2cc(F)ccc2NC(=O)C1(C#CC1CC1)C(F)(F)F (centres undefined)
3. O=C1Nc2ccccc2N(CC2CC2)C1(C#CC1CC1)C(F)(F)F (stereo in doubt; 6z)
4. CC(C)C(I)N1c2ccccc2NC(=O)C1(C#CC1CC1)C(F)(F)F (centres undefined)
5. CCOC(=O)N1c2cc(F)ccc2NC(=O)C1(C#CC1CC1)C(F)(F)F (centres undefined)
6. C#CCN1c2ccccc2NC(=O)C1(C#CC1CC1)C(F)(F)F (centres undefined)
7. CC[C@H]1C(=O)Nc2ccc(F)cc2N1C(=O)OC(C)C

Result:
1: 263; 2: 124; 3: 127; 4: 160; 5: 121; 6: 1810; 7: 179
